- Tested on: UO-31
- procedure text: NCI tumour cell line growth inhibition, 48 h
Active and inactive are the calls of the source. Rule as the data show it: active = GI50 up to about 1.1 µM and inactive = higher.
Item-by-item account of GI50

1) CCN(C(C)=O)c1cnc(/C=N/NC(N)=S)c2ccccc12 = 1.81 µM (inactive)
2) C=CC[C@H](C[C@H](C[C@H](C[C@H](C[C@H](C[C@H](C[C@H](C[C@H](C[C@H](C[C@H](CCCCC)OC)OC)OC)OC)OC)OC)OC)OC)OC)OC = 50.7 µM (inactive)
3) CC(C)(C)OC(=O)N1C(c2cccnc2)=CC[C@H]2C3CC=C(c4cccnc4)[C@@]3(C)CC[C@@H]21 (stereo not given in full) = 4.95 µM (inactive)

Exam item: Recorded GI50 of O=C1OC(c2ccccc2)=N/C1=C/NC(CO)C(=O)O (stereo not given) , please.
Marked response: > 100 µM (inactive)

Exam item: Same read-out for CCC1=NC(N/N=C/c2ccco2)=N/C1=C\c1ccco1 ?
Marked response: > 100 µM (inactive)

----------
Let's go through some GI50 measurements on HCT-15 together.

Study these solved cases before continuing.
1. COc1cc(C2c3cc4c(cc3OC(N3CCOCC3)C2C)OCO4)ccc1O (configuration not stated) = 4.98 µM
2. Cc1cccc(C)c1NC(=O)C(=O)C(C#N)c1ccccc1Cl (configuration not stated) = > 100 µM
3. C(/c1ccco1)=c1/nc(-c2ccccc2)n2c1nc1ccccc12 = 97.3 µM

Exam item: Recorded GI50 of CC(C)(C)CNC(=O)NCn1cc(-c2ccccc2)nn1 , please.
Marked response: > 100 µM

Exam item: Same read-out for COC(=O)C(=O)C(C(=O)OC)C(=O)C(=O)Nc1c(Cl)cc([N+](=O)[O-])cc1Cl (configuration not stated) ?
Marked response: 92.9 µM

----------
- System: SNB-75
- procedure text: NCI tumour cell line growth inhibition, 48 h
Activity calls are given as the source filed them. Cut-off read from the data, not from the text of the source: active = GI50 up to about 1.1 µM and inactive = higher.
readout label: GI50

Study these solved cases before continuing.
1) Cn1c2ccccc2c(=O)c2c([N+](=O)[O-])ccc(NCCN)c21 = 12.1 µM (inactive)
2) CN1CCC2(CC1)/C(=N/C1CCCCC1)NC(=O)N2c1ccccc1 = > 100 µM (inactive)

Exam item: Recorded GI50 of CN(C)c1nc(N(C)C)n2nc(-c3ccccc3[N+](=O)[O-])nc2n1 , please.
Marked response: > 100 µM (inactive)

Exam item: Same read-out for C=C[C@@H]1OC(=O)O[C@H]1CO ?
Marked response: > 100 µM (inactive)

Exam item: Same read-out for CCCCCCCCCCCCO[PH](=O)OCCCCCCCCCCCC ?
Marked response: > 100 µM (inactive)

Exam item: Same read-out for Cc1c(CCOC=O)c(=O)[nH]c2nncn12 ?
Marked response: > 100 µM (inactive)

Exam item: Same read-out for O=C(Nc1nnc(-c2ccccc2)o1)C(SC(=S)N1CCCCC1)c1ccccc1 (stereo unspecified) ?
Marked response: 30.4 µM (inactive)

Exam item: Same read-out for Cc1ccc2cccc(OC(=O)c3cc4c(cc3Cl)Sc3nccn3S4(=O)=O)c2n1 ?
Marked response: 9.66 µM (inactive)

Exam item: Same read-out for C=CCOC(C)(C)C1=CCC(C)CC1 (stereo unspecified) ?
Marked response: > 100 µM (inactive)

Exam item: Same read-out for O=C(Nn1c(-c2ccccc2)nc2ccccc2c1=O)c1ccc(Cl)cc1 ?
Marked response: 27.1 µM (inactive)

Exam item: Same read-out for O=C(OCCCl)C1OC(n2cc(F)c(=O)[nH]c2=O)CC1O (stereo unspecified) ?
Marked response: > 100 µM (inactive)

The measured values listed here are drawn from ChEMBL document CHEMBL1201862.
